B1: glmS ribozyme (parent)
chain: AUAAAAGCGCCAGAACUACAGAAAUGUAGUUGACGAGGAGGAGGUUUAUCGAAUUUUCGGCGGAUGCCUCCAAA

variants of: B1; assay: self-cleavage kobs at 2500 uM GlcN6P; higher = faster cleavage; RNA array; conditions: with glucosamine-6-phosphate
This sample holds only a part of the variants without activity.
experimental.readout: self-cleavage kobs at 2500 uM GlcN6P (s⁻¹)
Expressed in s⁻¹, but write only the number.

Observe how each entry below is paired with its result.
{"columns": ["mutation.key", "experimental.readout", "value.units", "quantitative.readout"],
 "data": [
  ["C11G C50U C61U C70G", "self-cleavage kobs at 2500 uM GlcN6P", "s⁻¹", 0.000127],
  ["G13A A15C", "self-cleavage kobs at 2500 uM GlcN6P", "s⁻¹", "9.3e-05"],
  ["G29A C71G", "self-cleavage kobs at 2500 uM GlcN6P", "s⁻¹", 0.000117],
  ["G32C A39G", "self-cleavage kobs at 2500 uM GlcN6P", "s⁻¹", "3.52e-05"],
  ["U47G U54C", "self-cleavage kobs at 2500 uM GlcN6P", "s⁻¹", 0.00468],
  ["A42G U47G", "self-cleavage kobs at 2500 uM GlcN6P", "s⁻¹", 0.0046]
]}

Given item A14C C16A C71G , the value recorded as its self-cleavage kobs at 2500 uM GlcN6P is 4.2e-05

Given item A12C U45A A64U , the value recorded as its self-cleavage kobs at 2500 uM GlcN6P is 0.000134

Given item G13U C71G , the value recorded as its self-cleavage kobs at 2500 uM GlcN6P is 5.35e-05
